experiment: yeast display, Sf9 membrane polyspecificity reagent, FACS + sequencing; frameworks hold sequencing errors

{"item sequence": "QVQLVESGGGLVQAGGSLRLSCAASGSTFNFYAMGWYRQAPGKEREFVAAITSSGDSTYYADSVKGRFTISRDNAKNTVYLQLNSLKPEDTAVYYCAARLRWRYSYDYWGQGTQVTVSS", "polyreactivity (PSR sort gate)": "high polyreactivity"}
{"item sequence": "QVQLVESGGGLVQAGGSLRLSCAASGITFRYYAMGWYRQAPGKERELVAAITGNGGGTYADSVKGRFTISRDNAKNTVYLQMNSLKPEVTAVYYCAADEPGLSWYDSYRYPDYGYDYWGQGTQVTVSS", "polyreactivity (PSR sort gate)": "low polyreactivity"}
{"item sequence": "QVQLVESGGVLVQAGGSIRLTCAASGFTFSHYAMGWYRQAPGKERELVAAIRYSRASTYYADSVKGRFTISRYNAKNTVYLQMISVKPEDTSVYYCARPWWWAHHYDYDYWGQGSQVTVSS", "polyreactivity (PSR sort gate)": "low polyreactivity"}
{"item sequence": "QVQLVESGGGLVQAGGSLRLSCAASGFTFRRNTMGWYRQEPGKERELVAAITQRGGSTYYADSVKGRFTISRDNAKNTVYLQMNSLKPEDTAVYYCAVERHSYIYKYDYWGQGTQVTVSS", "polyreactivity (PSR sort gate)": "high polyreactivity"}
{"item sequence": "QDQLVESGGGLVQAGGSLRLSCAASGSIFDDYAMGWYRQAPRKERELVASISWSGGRTYYADSVKGRFTISRDNAKNTVYLQMNSLKPEDTAVYYCAAALWTGYSWGQGTQVTVSS", "polyreactivity (PSR sort gate)": "low polyreactivity"}
{"item sequence": "QVQLVESGGGLVQAGGSLRLAVLPPDLPSTLNDMGWYRQAPGKERELVAAITRGGSTNYADSVKGRFTISRDNAKNTVYLQMNSLKPEDTAVYDCAAPYAGWRDGGDYWGQGTQVTVSS", "polyreactivity (PSR sort gate)": "low polyreactivity"}
{"item sequence": "QVQLVESGGGLVQAGGSLRLSCAASGSIFYPYGMGWYRQAPGKEREFVAAISWSGGTTYYADSVKGRFTISRDNAKNTVYLQMNSLKKEDTGVYYCAAVSFYGVGGTWYNYWGKGTQVTVSS", "polyreactivity (PSR sort gate)": "high polyreactivity"}
{"item sequence": "QVQLVESGGGLVQAGGSLRLSCAASGRIFRWYAMGWYRQAPGKERELVATISSTGGSTYYADSVKGRFTLSRDNAKNTVYLQMNSLKPEDTAVYYCNAVVYGIFLYAWYDYWGQGTQVTVSS", "polyreactivity (PSR sort gate)": "low polyreactivity"}
{"item sequence": "QVQLLESGGGIVKAGGFLRLSCAASGSTFRRYAMGRYREAPGIERELVAAITGRGGSTSYADSVKGRFTISRDNAMNTVYLQMNSLKPEDTSVYYCAADDKYFYPGNGYWGQGTQVTVSS", "polyreactivity (PSR sort gate)": "high polyreactivity"}
{"item sequence": "QVQLVESGGGLVQAGGSLRLSCAASGRTFYIYAMGWYRQAPGKERELVAAISTRDTRTYYADSVKGRFTISRDNAKNTVYLQMNSLKPEDTAVYYCAADAVDRDSDYWGQGTQVTVSS", "polyreactivity (PSR sort gate)": "high polyreactivity"}
{"item sequence": "QVQLVESGGGLVQAGGSLRLSCAASGSIFSGNAMGWYRQAPGKERELVAAITTRSGSTYYADSVKGRFTISRDNAKNTVYLQMNSLKPEDTAVYYCAATGYRYRRIYGFDYWGQGTQVTVSS", "polyreactivity (PSR sort gate)": "high polyreactivity"}
{"item sequence": "QVQLVESGGGLVQAGGSLRLSCAASGFIIVYYAMGWYRQAPGKERELVAAITSSGGSTYYADSVKGRFTISRDNAKNTVYLQMNSLKPEDTAVYYCNRVWYATDFVNTMGYWGQGTQGTVSS", "polyreactivity (PSR sort gate)": "low polyreactivity"}
{"item sequence": "QVQLVESGGGLVQAGGSLRLSCAASGSSVSYYAMGWYRQAPGKERELVAAISDNGDSTYYADSVKGRFTISRDNAKNTVYLQMNSLKPEDTAVYYCDKRYRSYGKSSKRRYYYWGQGTQVTVSS", "polyreactivity (PSR sort gate)": "low polyreactivity"}
{"item sequence": "HVQLVESGGGLVQAGGSLRLSCAASGRTLYNNAMGWYRQAPGKERELVAAISSRGGSTRYADSVKGRFTISRDNAKNTVYLQMNSLKPEDTAVYSGAKRSINRDGDYWGQGTQVTVSS", "polyreactivity (PSR sort gate)": "high polyreactivity"}
{"item sequence": "QVQLVESGGGLVQAGGSLRLSCAASGITFPDYDMGWYRQAPGKERELVAAITYRSGSTYYADSVKGRFTISRDNAKNTVYLQMNSLKPEDTAVYYCAATVRGVGYRYYYWGQGTQVTVSS", "polyreactivity (PSR sort gate)": "high polyreactivity"}
{"item sequence": "QVQLVESGGGLVQAGGSLRLSCAASGFIFGDNAMGWYRQAPGKERELVAGITVSDGSTYYADSVKGRFTISRDNAKNTVYLQMNSLKPEDTAVYYCNAAGRYKPGAPYDYWGQGTQVTVSS", "polyreactivity (PSR sort gate)": "low polyreactivity"}
{"item sequence": "QVQLVESGGGLVQAGGSLRLSCAASGRIFKFNAMGWYRQAPGKVRELVAATWSGGRTSYADSVKGRFTISRDNAKNTVYLQMNSLKPEDTAVYYCNAADWIDVQYDYGGQGTQVTVSS", "polyreactivity (PSR sort gate)": "low polyreactivity"}
{"item sequence": "QVQLVESGGGLVQAGGSLRLSCAASGSTFTSNTRWYRQAPGKERELVAAISNRGGGTYYADSVKGRFTISRDNAKNTVYLQMNSLKPEDTAVYYCNAAGYARKTAYYYWGQGTQVTVSS", "polyreactivity (PSR sort gate)": "high polyreactivity"}
{"item sequence": "QVQLVESGGGLVQAGGSLPLSCAASGRIFNSNAMGWYRQAPGKERELVAAIPISGSTNYADSVKGRFTISRDNAKNTVYFQMNSLKPEDTAVYYCAAQRTSHGRGVNGYVKYGYWGQGTIVTVSS", "polyreactivity (PSR sort gate)": "high polyreactivity"}
{"item sequence": "QVQLVESGGGLVQAGGSLRFSCAASGRTFRYYAMRWYRQAPGKERELVADISSTGRTYYADSVKGRFTISRDNAKNTVYLQMNSLNPEDSAVYYCAADYYSTYRTIYYYWGQGTQVSVSS", "polyreactivity (PSR sort gate)": "low polyreactivity"}
{"item sequence": "QVQLVESGGGLVQAGGSLRLSCAASGSTFTYNAMGWYRQAPGKERELVASISSGTTTYYADSVKGRFTISRDNAKNTVYLQMNCLKPEDTAVYYCAVDSWSRVQGWLAHYYDYWGQGTQVTVSS", "polyreactivity (PSR sort gate)": "low polyreactivity"}

###

assay: yeast display, Sf9 membrane polyspecificity reagent, FACS + sequencing; frameworks hold sequencing errors
measured attribute: polyreactivity (PSR sort gate)

{"item sequence": "QVQLVESGGGLVQAGGSLRLSCAASGIIFAYYAMGWYRQAPGKERELVGTNYADSVKGRFTISRDNAKNTVFLQMNSLKPEDTAVYYCAVQGYGEYDYWGQGTQVTVSS", "observed value": "low polyreactivity"}
{"item sequence": "QVQLVESGGGLVQAGGSLRLSCAASGRIVKANAMGWYRQAPGKERELVAAIRESGGTTYYADSVKGRFTISRDNATNTVYLQMNSLKPEDTAVYYCAAAYRDTQYNYYYWGQGTQVTVSS", "observed value": "high polyreactivity"}
{"item sequence": "QVQLVESGGGLVQAGGSLRLSCAASGFTFYIYVMGWYRQARGKERELVAAITWSGGRTYYADSVKGRFTISRDYAKNTVYLQMNSLKPEDTAVYYCAASYPGLSYHKYEYWGQGTQVTVSS", "observed value": "high polyreactivity"}
{"item sequence": "QVQLVESGGGLVQAGGSLRLSCAASGSTFGSNAMGWYRPAPGKERELVAAITYSGGRTYYADSVKGRFTISRDNAKNTVYLQMNSLKPEDTAVYYCAATFGFFYYQYDYWGQGTQVTVSS", "observed value": "low polyreactivity"}
{"item sequence": "QVQLVESGGGLVHAGGSLRLSCAASGSIFPVNAMGWYRQAPGKERELVAAITSSGGTTYYADSVKGRFTISRDYAKITVYLLMNSLKPVDTAVYYCAADVDVSYWRMEYWGQGTQVTVSS", "observed value": "high polyreactivity"}

###

experiment: yeast display, Sf9 membrane polyspecificity reagent, FACS + sequencing; frameworks hold sequencing errors
measured attribute: polyreactivity (PSR sort gate)

{"item sequence": "QLQLVESGGGLVQAGGSLSLTFAASGIISNYNAMGWYIQAPGKERELVSAISRSGTRKYYADSVKGRYTISRDNAKNTVYLQMNSLKPEDTAVYDCAAPSWSSKGYCKGYYWGQGTQVTVSS", "observed value": "high polyreactivity"}
{"item sequence": "QVQLVESGGGLVQAGGSLRLSCAASGRTIYVYAMGWYRQAPGKERELVADINWSGGSTYYADSVKGRFTISRDNAKNTVYLQMNSLKPEDTAVYYCAADDWVRRRSHSGPEGYVYWGQGTQVTVSS", "observed value": "low polyreactivity"}
{"item sequence": "QVQLVESGGGLVQAGGSLRLICAASGYTFKIKGMGWYRQAPGKERELVATIRAGGGNTYYADSVKGRFTISRDNAKNTVYLQMNSLKPEDTAVYYCNARYLRRTMEYWGQGTQVTVSS", "observed value": "high polyreactivity"}
{"item sequence": "QVQLVESGRGLVQAGGSLRLSCAASGRTFPYYAMGWYRQAPGKERELVAAISSSGGSTYYADSVKGRFTISRDNAKNTVYLQMNSLKPEDTAVYYCNRYSRLYLTDDDYWGQGTLVTVSS", "observed value": "high polyreactivity"}
{"item sequence": "QVQVVESGGGLVQAGGSLRLSCAASGRIFANNAMGWYRQAPGKERELVAAITASSGSTYYADSVKGRFTISRDNAKNTVYFQMNSLKPEDTAFYYCAATLRWGFRWYFGFDYWGQGTQVTVSS", "observed value": "high polyreactivity"}
{"item sequence": "QVQLVESGGGLVEAGGSLRLSCEASGFNFSRYVMGWYRQAPGKERELVAVISYRGGSTYYADSVKGRFTISRDYAKITVYLQMNSLKPEDTAVYYCNADTIPDGEDRYDYWGQGTQVTVSS", "observed value": "low polyreactivity"}
{"item sequence": "QVHLVESGGGLFQAGGSLRLIFAASGLIFYKNAMGWYRQAPGKERELVAISSSGGSTYYADSVKGRFTISRDNAKNSVYLQMHSLKPEDSAVYYCAARSRRYGGGYWGQGTQVTVSS", "observed value": "high polyreactivity"}
{"item sequence": "QVQLVESGVGLVQAGGSLRLSCAPSGRIFGTYAMVWYRQAPGKERELVASITDRGDSTYADSVKGRFTISRDNAKNTVYLQMNSLKPEDTAVYYCAADGWWHNFYPGTGLDYWGQGTQVTVSS", "observed value": "low polyreactivity"}
{"item sequence": "QVQLVESGGGLVQAGGSLRLICAASGRIFSYYAMGWYRQAPGKERELVARITSRGASTYYADSVKGRFTISRDNAKNTVYLQMNSLKPEDTAVYYCAARYIPIQYPSYRTWGGYSWGQGTQVTVSS", "observed value": "high polyreactivity"}
{"item sequence": "QVQLVESGGGLVQAGGSLRLSCAASGSIFVKNAMGWYRQAPGKERELVARITYSGGSTYYADSVKGRFTISRDNAKNTVYLQMNSLKPEDTADYYCDTDGNLRTAGYAYDHYYWGQGTQVTVSS", "observed value": "high polyreactivity"}
{"item sequence": "QVQLVESGGGLVQAGGSLRLSCAASGFIFYSYAMGWYRQAPGKEREFVASICGGTGSTYYADSVKGRFTISRDNAKNTVYLQMNSLIPEDTAVYYCNARIVHSFRYDYWGQGTQVTVSS", "observed value": "low polyreactivity"}
